- System: 699152-130-R-J1-PDC complex spheroid viability;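 also: spheroids exposed to agents for 7 days before viability reading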
- ASSAY_NAME: Anticancer human tumor 699152-130-R-J1-PDC patient-derived pancreatic carcinoma cell line growth inhibition [POLQ]
- TEST_CONTEXT: curve of compound
The entries below come with measured IC50 values attached.

Worked examples follow.
molecule=O=c1[nH]cc(F)c(=O)[nH]1 experimental_endpoint=IC50 result="> 10 µM"
molecule=CC[C@@]1(O)C(=O)OCc2c1cc1n(c2=O)Cc2cc3c(CN(C)C)c(O)ccc3nc2-1 experimental_endpoint=IC50 result="> 0.1 µM"
molecule=COc1cc2cc(C(=O)CCC(=O)O)sc2cc1OC experimental_endpoint=IC50 result="> 10 µM"
molecule=O=C(c1cc(Cc2n[nH]c(=O)c3ccccc23)ccc1F)N1CCN(C(=O)C2CC2)CC1 experimental_endpoint=IC50 result="> 10 µM"
molecule=C=CCn1c(=O)c2cnc(Nc3ccc(N4CCN(C)CC4)cc3)nc2n1-c1cccc(C(C)(C)O)n1 experimental_endpoint=IC50 result="> 1 µM"

**Query** Record CNCc1ccc(-c2[nH]c3cc(F)cc4c3c2CCNC4=O)cc1 : what is its IC50 with 699152-130-R-J1-PDC complex spheroid viability?
**Result** > 10 µM

**Query** Then this molecule: CC(=O)O[C@H]1C(=O)[C@@]2(C)[C@H]([C@H](OC(=O)c3ccccc3)[C@]3(O)C[C@H](OC(=O)[C@H](O)[C@@H](NC(=O)c4ccccc4)c4ccccc4)C(C)=C1C3(C)C)[C@]1(OC(C)=O)CO[C@@H]1C[C@@H]2O
**Result** > 3 µM

**Query** Then this molecule: Cn1ncnc1[C@H]1c2n[nH]c(=O)c3cc(F)cc(c23)N[C@@H]1c1ccc(F)cc1
**Result** > 0.1 µM

**Query** Then this molecule: O=C(Nc1ccc(O)c(NS(=O)(=O)c2ccc(F)cc2)c1)c1ccc(-c2ccccc2)cc1
**Result** > 10 µM

**Query** Then this molecule: C#Cc1c(F)ccc2cc(O)cc(-c3ncc4c(N5CC6CCC(C5)N6)nc(OCC56CCCN5CC(F)C6)nc4c3F)c12 (stereo unspecified)
**Result** < 0.0316 µM

Measured values drawn from PubChem BioAssay AID1963835 for this set.
